Each recorded value in this set is attributed to patent US8603975B2.

- study.target: HCV replicon
- Assay type: cell-based, hepatitis C virus
- test.settings: HCV replicon cells, D-MEM with 5% fetal bovine serum, luciferase activity after two more days of cultivation, 50% enzyme activity level to control (DMSO only)
*1 amine or outer side, *2 acyl side, *3 side chain or, on linkers, in order; H or OH if unused. Where a SMILES comes first, the peptide text is derived from it. [ ]: non-standard residue; d: D form. X4 = C[C@H](COC(=O)N(C)c1cccnc1)C[C@@H](C(=O)[*:2])N(C)[*:1]; MeBmt = C/C=C/C[C@@H](C)[C@@H](O)[C@H](NC)C(=O)O; NMeL = CN[C@@H](CC(C)C)C(=O)O; NMeV = CN[C@H](C(=O)O)C(C)C; Sar = CNCC(=O)O
measurement.type: HCV replicon replication inhibitory activity: EC50

Req: Reported HCV replicon replication inhibitory activity: EC50, molecule C/C=C/C[C@@H](C)[C@@H](O)[C@H]1C(=O)N[C@@H]([C@@H](C)O)C(=O)N(C)CC(=O)N(C)[C@@H](CC(C)C)C(=O)N[C@@H](CC(C)C)C(=O)N(C)[C@@H](CC(C)C)C(=O)N[C@@H](C)C(=O)N[C@H](C)C(=O)N(C)[C@@H](C[C@H](C)COC(=O)N(C)c2cccnc2)C(=O)N[C@@H](CC(C)C)C(=O)N(C)[C@@H](C(C)C)C(=O)N1C [Ex 39] (cyclo([MeBmt]T[Sar][NMeL]L[NMeL]A[dA][X4]L[NMeV])) : ____
Resp: 0.12 mg/L

Req: Reported HCV replicon replication inhibitory activity: EC50, molecule "C/C=C/C[C@@H](C)[C@@H](O)[C@H]1C(=O)N[C@@H]([C@@H](C)O)C(=O)N(C)[C@H](C)C(=O)N(C)[C@@H](CC(C)C)C(=O)N[C@@H](CC(C)C)C(=O)N(C)[C@@H](CC(C)C)C(=O)N[C@@H](C)C(=O)N[C@H](C)C(=O)N(C)[C@@H](C[C@H](C)COC(=O)N2CCC(C)(OCC)CC2)C(=O)N[C@@H](CC(C)C)C(=O)N(C)[C@@H](C(C)C)C(=O)N1C" : ____
Resp: 0.056 mg/L

Req: Reported HCV replicon replication inhibitory activity: EC50, molecule "C/C=C/C[C@@H](C)[C@@H](O)[C@H]1C(=O)N[C@@H]([C@@H](C)O)C(=O)N(C)[C@H](COC)C(=O)N(C)[C@@H](CC(C)C)C(=O)N[C@@H](CC(C)C)C(=O)N(C)[C@@H](CC(C)C)C(=O)N[C@@H](C)C(=O)N[C@H](C)C(=O)N(C)[C@@H](C[C@H](C)COC(=O)N2CC[C@H](OC)C2)C(=O)N[C@@H](CC(C)C)C(=O)N(C)[C@@H](C(C)C)C(=O)N1C" : ____
Resp: 0.035 mg/L
